Origin of values: patent US7355047B2

# Assay Target: GABAA receptor complex (GRC)
# Assay Explanation: [35S]TBPS binding assay, rat cortex
# Details: 2 nM [35S]TBPS; rat cortex; read-out: IC50 (inhibition of [35S]TBPS binding)
Measured Endpoint: IC50 (nM)
Express the result in nM but write the number alone.

// below: answered compounds
CCn1cc(C(=O)O)c(=O)c2cc(NC3CCCc4ccccc43)c(Cl)cc21 (centres unmarked) [drawing 15] = 2700
CCOC(=O)c1cn(CC)c2cc(Cl)c(NC3CCCc4ccccc43)cc2c1=O (centres unmarked) = 880
CCCNC(=O)c1cn(CC)c2cc(Cl)c(NC3CCCc4ccccc43)cc2c1=O (centres unmarked) = 1500

INPUT: Which measured IC50 value corresponds to CCn1cc(C(=O)O)c(=O)c2cc(NCC(C)c3ccccc3)c(Cl)cc21 (centres unmarked) ?
OUTPUT: 4000

INPUT: Same again, this time with CCn1cc(C(=O)O)c(=O)c2cc(NC(C)CCc3ccccc3)c(Cl)cc21 (centres unmarked)
OUTPUT: 2000
